Source: ChEMBL document CHEMBL4020785

# measurement target: Peroxisome proliferator-activated receptor delta (Homo sapiens)
# Sequence (Q03181 whole entry, the tested form may be a part): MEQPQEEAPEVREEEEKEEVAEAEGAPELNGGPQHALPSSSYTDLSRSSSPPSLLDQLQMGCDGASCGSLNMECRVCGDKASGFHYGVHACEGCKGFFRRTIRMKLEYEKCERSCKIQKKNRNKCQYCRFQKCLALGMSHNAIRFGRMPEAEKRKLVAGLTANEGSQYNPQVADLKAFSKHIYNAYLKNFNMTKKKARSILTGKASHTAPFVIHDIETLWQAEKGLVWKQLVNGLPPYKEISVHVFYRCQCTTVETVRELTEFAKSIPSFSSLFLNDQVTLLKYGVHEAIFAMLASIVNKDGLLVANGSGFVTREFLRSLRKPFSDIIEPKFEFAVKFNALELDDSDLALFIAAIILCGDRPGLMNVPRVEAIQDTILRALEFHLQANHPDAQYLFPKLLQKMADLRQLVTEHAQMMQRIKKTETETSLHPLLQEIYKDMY
# assay comment: Agonist activity at GAL4N fused human PPARdelta LBD expressed in HEK293 cells co-expressing TK-MH100x4-Luc after 24 hrs by luciferase reporter gene assay
pEC50: −log10 of the molar value.
Please use label 1 whenever pEC50 is not below 6, and label 0 whenever it is.

compound: CCOC(Cc1ccc(Oc2ccc(OCc3ccccc3)cc2)cc1)C(=O)O (stereo unspecified)
category: label 0
--
compound: CC(=O)NC(C)c1nc(-c2ccc(OCCc3ccc(OS(C)(=O)=O)cc3)cc2)no1 (stereo unspecified)
category: label 0
--
compound: CC(=O)NC(C)c1nc(-c2ccc(OCCN3c4ccccc4Oc4ccccc43)cc2)no1 (stereo unspecified)
category: label 1

[Q] Please tell me: is the compound CC(=O)NC(C)c1nc(-c2ccc(OCCCOc3ccc(Oc4ccccc4)cc3)cc2)no1 (stereo unspecified) at or over 6 in terms of pEC50?
[A] label 1
